Tested on: recombinant NL4-3 virus (Renilla luciferase in nef, Gag P373S)
Test: HIV cell culture assay (luciferase reporter, MT-2 cells)
Type: cell-based, HIV-1
Conditions: MT-2 cells infected for 4-5 days with NLRluc recombinants; luciferase activity; serial dilutions of inhibitor
Entries annotated with measured EC50
Readout Type: EC50 (nM)

Compound	Assayed Target	Obs Value
CC(C(=O)O)[C@@H]1CC[C@]2(NCCN3CCS(=O)(=O)CC3)CC[C@]3(C)[C@H](CC[C@@H]4[C@@]5(C)CC=C(c6ccc(C(=O)O)c(F)c6)C(C)(C)[C@@H]5CC[C@]43C)[C@@H]12 (some centres unmarked) [Example A7]	recombinant NL4-3 virus (Renilla luciferase in nef, Gag P373S)	110
CC(CO)[C@@H]1CC[C@]2(NCCN3CCS(=O)(=O)CC3)CC[C@]3(C)[C@H](CC[C@@H]4[C@@]5(C)CC=C(c6ccc(C(=O)O)c(F)c6)C(C)(C)[C@@H]5CC[C@]43C)[C@@H]12 (single isomer, unassigned) [Example A5]	recombinant NL4-3 virus (Renilla luciferase in nef, Gag P373S)	6.89
CC(O)[C@@H]1CC[C@]2(NCCN3CCS(=O)(=O)CC3)CC[C@]3(C)[C@H](CC[C@@H]4[C@@]5(C)CC=C(c6ccc(C(=O)O)cc6)C(C)(C)[C@@H]5CC[C@]43C)[C@@H]12 (single isomer, unassigned) [Example B12]	recombinant NL4-3 virus (Renilla luciferase in nef, Gag P373S)	3.95
CC(O)(CO)[C@@H]1CC[C@]2(NCCN3CCS(=O)(=O)CC3)CC[C@]3(C)[C@H](CC[C@@H]4[C@@]5(C)CC=C(c6ccc(C(=O)O)cc6)C(C)(C)[C@@H]5CC[C@]43C)[C@@H]12 (single isomer, unassigned) [Example B10]	recombinant NL4-3 virus (Renilla luciferase in nef, Gag P373S)	6.67
CC(O)(CO)[C@@H]1CC[C@]2(NCCN3CCS(=O)(=O)CC3)CC[C@]3(C)[C@H](CC[C@@H]4[C@@]5(C)CC=C(c6ccc(C(=O)O)cc6)C(C)(C)[C@@H]5CC[C@]43C)[C@@H]12 (single isomer, unassigned) [Example B9]	recombinant NL4-3 virus (Renilla luciferase in nef, Gag P373S)	2.15
